assay: Individual predicted steady‐state exposures; assay type: in vivo, human; settings: human, plasma, intravenous
READOUT_LABEL: AUC (µg·h/mL)

[
  {
    "MOLECULE": "CC(C)(O/N=C(\\C(=O)N[C@@H]1C(=O)N2C(C(=O)[O-])=C(C[n+]3ccccc3)CS[C@H]12)c1csc(N)n1)C(=O)O [Ceftazidime, ceftazidime]",
    "RECORDED_NUMBER": 748
  }
]

###

assay: Individual predicted steady‐state exposures; format: in vivo, human; conditions: human, plasma, intravenous, AUCss,0–24 geometric mean (CV), SIRS at baseline: Yes
As shown below, each of these compounds has a reported AUC value.

[
  {
    "QUERY_SMILES": "NC(=O)[C@@H]1CC[C@@H]2CN1C(=O)N2OS(=O)(=O)O",
    "AUC [µg·h/mL]": 142
  },
  {
    "QUERY_SMILES": "CC(C)(O/N=C(\\C(=O)N[C@@H]1C(=O)N2C(C(=O)[O-])=C(C[n+]3ccccc3)CS[C@H]12)c1csc(N)n1)C(=O)O",
    "AUC [µg·h/mL]": 869
  }
]
